// provenance: ChEMBL document CHEMBL6120942

EXPERIMENTAL_DETAILS: Metabolic stability in human microsome assessed as clearance measured upto 60 mins by LC-MS/MS analysis
Format: ADME
COND: microsomes, 1 h
List of CLH values.

Worked cases, CLH given:
Cc1cc(C)n(-c2cccc([C@H](CC(=O)O)CN3CC[C@@](F)(CCc4ccc5c(n4)NCCC5)C3)c2)n1 : < 0.53 mL/min/g
O=C(O)C[C@H](CN1CC[C@@](F)(CCc2ccc3c(n2)NCCC3)C1)c1cccc(O[C@@H]2CCOC2)c1 : < 0.4 mL/min/g
O=C(O)C[C@H](CN1CC[C@@](F)(CCc2ccc3c(n2)NCCC3)C1)c1cccc(O[C@H]2CCOC2)c1 : < 0.4 mL/min/g
O=C(O)C[C@H](CN1CC[C@@](F)(CCc2ccc3c(n2)NCCC3)C1)c1cccc(N2CCOCC2)c1 : < 0.46 mL/min/g

Recorded CLH (compound O=C(O)C[C@H](CN1CC[C@@](F)(CCc2ccc3c(n2)NCCC3)C1)c1cccc(OC2CCOCC2)c1 ): < 0.4 mL/min/g

###

List of half-life values.
EXPERIMENTAL_DETAILS: Half life in male Wistar Han rat at 1 mg/kg, iv measured upto 24 hrs by LC-MS/MS analysis
Type: ADME, organism-based
COND: in vivo
Express your answer in h, writing the number without its unit.

O=C(O)C[C@H](CN1CC[C@@](F)(CCc2ccc3c(n2)NCCC3)C1)c1cccc(OC2CCOCC2)c1 : 3.5
O=C(O)C[C@H](CN1CC[C@@](F)(CCc2ccc3c(n2)NCCC3)C1)c1cccc(N2CCOCC2)c1 : 1.9

Recorded half-life (compound Cc1cc(C)n(-c2cccc([C@H](CC(=O)O)CN3CC[C@@H](CCc4ccc5c(n4)NCCC5)C3)c2)n1.Cl ): 0.8
